- Target Of Assay: human ENT1 (Homo sapiens, UniProt Q99808)
- Construct: JAR cells expressing ENT1 were purchased from ATCC; host or cells: JAR cells
- Sequence (Q99808 1-456): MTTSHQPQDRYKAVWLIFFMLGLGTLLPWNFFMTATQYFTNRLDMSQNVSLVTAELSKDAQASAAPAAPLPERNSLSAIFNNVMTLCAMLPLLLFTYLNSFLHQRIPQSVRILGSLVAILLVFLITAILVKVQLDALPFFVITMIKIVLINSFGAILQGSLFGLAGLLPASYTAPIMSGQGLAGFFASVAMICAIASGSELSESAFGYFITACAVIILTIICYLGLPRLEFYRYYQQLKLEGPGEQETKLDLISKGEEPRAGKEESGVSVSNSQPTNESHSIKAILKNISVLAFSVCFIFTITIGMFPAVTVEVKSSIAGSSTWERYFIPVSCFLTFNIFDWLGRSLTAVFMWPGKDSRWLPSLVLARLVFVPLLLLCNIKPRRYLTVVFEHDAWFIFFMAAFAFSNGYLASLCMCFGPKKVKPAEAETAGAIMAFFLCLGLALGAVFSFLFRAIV
- Test Details: ENT1 binding assay (competition with Sahenta-DY647 on JAR cells)
- Condition Description: competition with SAHENTA-DY647 binding; IC50 categorized; read-out: Binding Assay IC50
pIC50: −log10 of the molar value.
Measured Metric: pIC50

**Q:** Supply pIC50 value. Item: CC(C)Nc1nc2c(OCc3ccc(C#N)cc3)ncnc2n1[C@@H]1O[C@H](C)[C@@H](O)[C@H]1O [Compound 40]
**A:** 7.70 to 9.00

**Q:** Supply pIC50 value. Item: C[C@H]1O[C@@H](n2c(NC3CCS(=O)(=O)CC3)nc3c(OCc4ccc(C#N)cc4)ncnc32)[C@H](O)[C@@H]1O [Compound 54]
**A:** > 9.00

**Q:** Supply pIC50 value. Item: C[C@H]1O[C@@H](n2c(NC3CCCC3)nc3c(OCc4ccc(OC(F)F)cc4)ncnc32)[C@H](O)[C@@H]1O [Compound 11]
**A:** > 9.00

**Q:** Supply pIC50 value. Item: C[C@H]1O[C@@H](n2c(NC3CCCC3)nc3c(OCc4ccc(C#N)c(F)c4)ncnc32)[C@H](O)[C@@H]1O [Compound 89]
**A:** > 9.00

**Q:** Supply pIC50 value. Item: CCOC(=O)CC[C@H]1O[C@@H](n2cnc3c(OCc4ccc([N+](=O)[O-])cc4)ncnc32)[C@H](O)[C@@H]1O [Compound 219]
**A:** < 6.30

**Q:** Supply pIC50 value. Item: C[C@H]1O[C@@H](n2c(NC3CCCC3)nc3c(OCc4ccc(Cl)cc4)ncnc32)[C@H](O)[C@@H]1O [Compound 91]
**A:** 7.70 to 9.00

**Q:** Supply pIC50 value. Item: CC(=O)N1CCC(Nc2nc3c(OCc4ccc(OC(F)F)cc4)ncnc3n2[C@@H]2O[C@H](C)[C@@H](O)[C@H]2O)CC1 [Compound 79]
**A:** > 9.00

###

- Target Of Assay: human ENT1 (Homo sapiens, UniProt Q99808)
- Construct: JAR cells expressing ENT1 were purchased from ATCC; host or cells: JAR cells
- Test Details: ENT1 binding assay (competition with Sahenta-DY647 on JAR cells)
- Condition Description: competition with SAHENTA-DY647 binding; IC50 categorized; read-out: Binding Assay IC50
pIC50: −log10 of the molar value.
Measured Metric: pIC50

Examples from the recorded data:
C[C@H]1O[C@@H](n2c(NC3CCS(=O)(=O)CC3)nc3c(OCc4ccc([N+](=O)[O-])cc4)ncnc32)[C@H](O)[C@@H]1O [Compound 31]    > 9.00
C[C@H]1O[C@@H](n2cnc3c(NCc4ccc([N+](=O)[O-])cc4)ncnc32)[C@H](O)[C@@H]1O [Compound 185]    6.30 to 7.70
C[C@H]1O[C@@H](n2cnc3c(OC4CCc5ccc([N+](=O)[O-])cc5C4)ncnc32)[C@H](O)[C@@H]1O (stereo partly drawn) [Compound 228]    < 6.30
COCCNc1nc2c(OCc3ccc([N+](=O)[O-])cc3)ncnc2n1[C@@H]1O[C@H](C)[C@@H](O)[C@H]1O [Compound 23]    7.70 to 9.00
C[C@H]1O[C@@H](n2cnc3c(OCc4ccc(C(F)(F)F)cc4)ncnc32)[C@H](O)[C@@H]1O [Compound 204]    6.30 to 7.70

**Q:** Supply pIC50 value. Item: C[C@H]1O[C@@H](n2cnc3c(OCc4ccc5cnn(C)c5c4)ncnc32)[C@H](O)[C@@H]1O [Compound 333]
**A:** < 6.30

**Q:** Supply pIC50 value. Item: C[C@H]1O[C@@H](n2cnc3c(OCc4ccc(F)cc4)ncnc32)[C@H](O)[C@@H]1O [Compound 202]
**A:** 6.30 to 7.70

**Q:** Supply pIC50 value. Item: C[C@H]1O[C@@H](n2cnc3c(OCc4cccc(C(N)=O)c4)ncnc32)[C@H](O)[C@@H]1O [Compound 373]
**A:** < 6.30

**Q:** Supply pIC50 value. Item: C[C@H]1O[C@@H](n2cnc3c(SCc4ccc(OC(F)F)cc4)ncnc32)[C@H](O)[C@@H]1O [Compound 176]
**A:** 6.30 to 7.70

**Q:** Supply pIC50 value. Item: C[C@H]1O[C@@H](n2cnc3c(OCc4ccc5c(c4)OCCO5)ncnc32)[C@H](O)[C@@H]1O [Compound 363]
**A:** < 6.30

**Q:** Supply pIC50 value. Item: C[C@H]1O[C@@H](n2cnc3c(C(=O)N4CCC4c4ccccc4)ncnc32)[C@H](O)[C@@H]1O (stereo partly drawn) [Compound 422]
**A:** < 6.30

**Q:** Supply pIC50 value. Item: C[C@H]1O[C@@H](n2cnc3c(NCc4ccc(C(F)(F)F)c(Cl)c4)ncnc32)[C@H](O)[C@@H]1O [Compound 282]
**A:** < 6.30

**Q:** Supply pIC50 value. Item: C[C@H]1O[C@@H](n2c(NC3CCS(=O)(=O)CC3)nc3c(OCc4ccc(OC(F)F)cc4)ncnc32)[C@H](O)[C@@H]1O [Compound 55]
**A:** > 9.00

**Q:** Supply pIC50 value. Item: C[C@H]1O[C@@H](n2cnc3c(N4CC(c5ccc([N+](=O)[O-])cc5)C4)ncnc32)[C@H](O)[C@@H]1O [Compound 209]
**A:** 6.30 to 7.70

**Q:** Supply pIC50 value. Item: C[C@H]1O[C@@H](n2cnc3c(SCc4ccc5ccncc5c4)ncnc32)[C@H](O)[C@@H]1O [Compound 308]
**A:** < 6.30

###

- Target Of Assay: human ENT1 (Homo sapiens, UniProt Q99808)
- Construct: JAR cells expressing ENT1 were purchased from ATCC; host or cells: JAR cells
- Test Details: ENT1 binding assay (competition with Sahenta-DY647 on JAR cells)
- Condition Description: competition with SAHENTA-DY647 binding; IC50 categorized; read-out: Binding Assay IC50
pIC50: −log10 of the molar value.
Measured Metric: pIC50

Examples from the recorded data:
CC(C)Oc1cccc(CSc2ncnc3c2ncn3[C@@H]2O[C@H](C)[C@@H](O)[C@H]2O)c1    < 6.30
C[C@H]1O[C@@H](n2cnc3c(SCc4cc(-c5ccco5)on4)ncnc32)[C@H](O)[C@@H]1O    < 6.30
Cc1cc(CSc2ncnc3c2ncn3[C@@H]2O[C@H](C)[C@@H](O)[C@H]2O)no1    < 6.30
C[C@H]1O[C@@H](n2cnc3c(CCc4ccc([N+](=O)[O-])cc4)ncnc32)[C@H](O)[C@@H]1O    6.30 to 7.70
C[C@H]1O[C@@H](n2cnc3c(OCc4ccc([N+](=O)[O-])nc4)ncnc32)[C@H](O)[C@@H]1O    6.30 to 7.70

**Q:** Give reported pIC50 for `C[C@H]1O[C@@H](n2cnc3c(SCc4ccc5ccccc5n4)ncnc32)[C@H](O)[C@@H]1O` (human ENT1 (Homo sapiens, UniProt Q99808))
**A:** < 6.30

**Q:** Give reported pIC50 for `CC(=O)c1ccc(COc2ncnc3c2ncn3[C@@H]2O[C@H](C)[C@@H](O)[C@H]2O)cc1` (human ENT1 (Homo sapiens, UniProt Q99808))
**A:** < 6.30

###

- Target Of Assay: human ENT1 (Homo sapiens, UniProt Q99808)
- Construct: JAR cells expressing ENT1 were purchased from ATCC; host or cells: JAR cells
- Test Details: ENT1 binding assay (competition with Sahenta-DY647 on JAR cells)
- Condition Description: competition with SAHENTA-DY647 binding; IC50 categorized; read-out: Binding Assay IC50
Measured IC50, listed per entry for reference.

Examples from the recorded data:
C[C@H]1O[C@@H](n2cnc3c(OCCc4cccc([N+](=O)[O-])c4)ncnc32)[C@H](O)[C@@H]1O [Compound 275]    > 500 nM
C[C@H]1O[C@@H](n2c(NC3CCCC3)nc3c(OCc4ccc(C(F)F)cc4)ncnc32)[C@H](O)[C@@H]1O [Compound 94]    1 to 20 nM
O=[N+]([O-])c1ccc(CSc2ncnc3c2ncn3[C@@H]2O[C@H](CO)C[C@H]2O)cc1 [Compound 216]    20 to 500 nM
C[C@H]1O[C@@H](n2cnc3c(NCc4ccc(-c5ncon5)cc4)ncnc32)[C@H](O)[C@@H]1O [Compound 255]    > 500 nM
C[C@H]1O[C@@H](n2c(NCC3CCOC3)nc3c(OCc4ccc(OC(F)F)cc4)ncnc32)[C@H](O)[C@@H]1O (stereo partly drawn) [Compound 112]    1 to 20 nM
C[C@H]1O[C@@H](n2cnc3c(NCCc4ccc([N+](=O)[O-])cc4)ncnc32)[C@H](O)[C@@H]1O [Compound 252]    > 500 nM
Cc1nc(=O)c2cc(COc3ncnc4c3ncn4[C@@H]3O[C@H](C)[C@@H](O)[C@H]3O)ccc2[nH]1 [Compound 367]    > 500 nM
C[C@H]1O[C@@H](n2cnc3c(SCc4cncc(C#N)c4)ncnc32)[C@H](O)[C@@H]1O [Compound 251]    > 500 nM

**Q:** Supply IC50 value. Item: C[C@H]1O[C@@H](n2cnc3c(C(=O)Nc4ccc([N+](=O)[O-])cc4)ncnc32)[C@H](O)[C@@H]1O [Compound 341]
**A:** > 500 nM

**Q:** Supply IC50 value. Item: C[C@H]1O[C@@H](n2cnc3c(SCc4ccc(C#N)cc4)ncnc32)[C@H](O)[C@@H]1O [Compound 165]
**A:** 20 to 500 nM

**Q:** Supply IC50 value. Item: C[C@H]1O[C@@H](n2cnc3c(OCc4ccccc4S(C)(=O)=O)ncnc32)[C@H](O)[C@@H]1O [Compound 375]
**A:** > 500 nM

**Q:** Supply IC50 value. Item: C[C@H]1O[C@@H](n2cnc3c(OCc4ccc(C#N)c(F)c4)ncnc32)[C@H](O)[C@@H]1O [Compound 174]
**A:** 20 to 500 nM

**Q:** Supply IC50 value. Item: C[C@H]1O[C@@H](n2c(N)nc3c(OCCc4ccc([N+](=O)[O-])cc4)ncnc32)[C@H](O)[C@@H]1O [Compound 215]
**A:** 20 to 500 nM

**Q:** Supply IC50 value. Item: CCNc1nc2c(N3CCc4ccc([N+](=O)[O-])cc4C3)ncnc2n1[C@@H]1O[C@H](C)[C@@H](O)[C@H]1O [Compound 150]
**A:** 1 to 20 nM

**Q:** Supply IC50 value. Item: C[C@H]1O[C@@H](n2cnc3c(C(=O)N4CCC(c5ccc([N+](=O)[O-])cc5)C4)ncnc32)[C@H](O)[C@@H]1O (stereo partly drawn) [Compound 419]
**A:** > 500 nM

**Q:** Supply IC50 value. Item: C[C@H]1O[C@@H](n2c(NC3CCOCC3)nc3c(OCc4ccc([N+](=O)[O-])cc4)ncnc32)[C@H](O)[C@@H]1O [Compound 30]
**A:** < 1 nM

**Q:** Supply IC50 value. Item: C[C@H]1O[C@@H](n2cnc3c(SCc4ccc(C(=O)N5CCCC5)cc4)ncnc32)[C@H](O)[C@@H]1O [Compound 390]
**A:** > 500 nM

**Q:** Supply IC50 value. Item: C[C@H]1O[C@@H](n2cnc3c(OCc4ccc(OC(F)(F)F)cc4)ncnc32)[C@H](O)[C@@H]1O [Compound 180]
**A:** 20 to 500 nM

**Q:** Supply IC50 value. Item: Cc1nnc(CSc2ncnc3c2ncn3[C@@H]2O[C@H](C)[C@@H](O)[C@H]2O)o1 [Compound 398]
**A:** > 500 nM

**Q:** Supply IC50 value. Item: C[C@H]1O[C@@H](n2cnc3c(SCc4nc(-c5ccccc5Cl)no4)ncnc32)[C@H](O)[C@@H]1O [Compound 310]
**A:** > 500 nM

**Q:** Supply IC50 value. Item: C[C@H]1O[C@@H](n2cnc3c(OCCc4cc(F)c(Cl)c(F)c4)ncnc32)[C@H](O)[C@@H]1O [Compound 268]
**A:** > 500 nM

**Q:** Supply IC50 value. Item: C[C@H]1O[C@@H](n2c(N[C@H]3CCOC3)nc3c(OCc4ccc(C#N)cc4)ncnc32)[C@H](O)[C@@H]1O [Compound 78]
**A:** 1 to 20 nM

**Q:** Supply IC50 value. Item: C[C@H]1O[C@@H](n2cnc3c(C4=Cc5cc([N+](=O)[O-])ccc5CC4)ncnc32)[C@H](O)[C@@H]1O [Compound 192]
**A:** 20 to 500 nM

**Q:** Supply IC50 value. Item: C[C@H]1O[C@@H](n2c(NCC3CCOC3)nc3c(OCc4ccc(C#N)cc4)ncnc32)[C@H](O)[C@@H]1O (stereo partly drawn) [Compound 108]
**A:** 1 to 20 nM

**Q:** Supply IC50 value. Item: C[C@H]1O[C@@H](n2c(N[C@H]3CC[C@@](C)(O)CC3)nc3c(N4CCc5ccc([N+](=O)[O-])cc5C4)ncnc32)[C@H](O)[C@@H]1O [Compound 139]
**A:** < 1 nM

**Q:** Supply IC50 value. Item: C[C@H]1O[C@@H](n2cnc3c(OCCc4cnc(C#N)nc4)ncnc32)[C@H](O)[C@@H]1O [Compound 347]
**A:** > 500 nM

**Q:** Supply IC50 value. Item: C[C@H]1O[C@@H](n2cnc3c(OCc4ccc(C(F)(F)F)cc4Cl)ncnc32)[C@H](O)[C@@H]1O [Compound 307]
**A:** > 500 nM
